Reference source for all entries: patent US7928113B2

experiment: Cytotoxicity MTT assay, MDA-MB-435; type: cell-based, human; settings: human, MDA-MB-435 breast cancer cells; MDA-MB-435, Table 5
Assay Metric: IC50 at 72 h (µM)

Compound: CN(C)c1ccc(/C=C2\SC(=Nc3ccc(O)cc3)NC2=O)cc1
Prefix Operator: =
Measured Result: 2.8
--
Compound: Nc1nc(O)c2nc(CCCNc3ccc(C(=O)NC(CCC(=O)O)C(=O)O)cc3)cnc2n1 (centres unmarked)
Prefix Operator: >
Measured Result: 20
--
Compound: Cc1ccc(NC(=O)CN2C(=O)N/C(=C\c3cccn3-c3cccc(C(=O)O)c3)C2=O)cc1
Prefix Operator: >
Measured Result: 20
--
Compound: CS(=O)(=O)Nc1ccc(C2=NN(C(=O)CCCC(=O)O)C(c3ccco3)C2)cc1 (centres unmarked)
Prefix Operator: >
Measured Result: 20
--
Compound: O=C(O)c1ccc(-c2ccc(/C=N/Nc3nc(Nc4ccccc4)nc(Nc4ccccc4)n3)o2)cc1
Prefix Operator: =
Measured Result: 18

* * *

system: MCF7 breast cancer cell line; assay: Cytotoxicity MTT assay, MCF7; format: cell-based, human; conditions: Table B
Assay Metric: IC50

Molecule: COc1cc(Cl)c(/C=C2\S/C(=N/c3cccc(C(=O)O)c3)N(C)C2=O)cc1OC [AV38]
Measured Result: > 20 µM

* * *

system: HEY ovarian cancer cell line; test: Cytotoxicity MTT assay, HEY; format: cell-based, human; settings: Table B
Assay Metric: IC50

Smiles Representation: COc1cc(Cl)c(/C=C2\S/C(=N/c3cccc(C(=O)O)c3)N(C)C2=O)cc1OC
Measured Result: > 20 µM

* * *

Listing: IC50 at 72 h of selected molecules
assay: Cytotoxicity MTT assay, NCI-H1975; format: cell-based, human; details: human, NCI-H1975 non-small cell lung cancer cells; NCI-H1975, Table 5

Molecule: O=C(O)c1cccc(-c2ccc(/C=N/Nc3nc4nonc4nc3Nc3ccc(F)cc3)o2)c1
IC50 at 72 h: > 20 µM
--
Molecule: Cc1ccc(NC(=O)CN2C(=O)N/C(=C\c3cccn3-c3cccc(C(=O)O)c3)C2=O)cc1
IC50 at 72 h: > 20 µM
--
Molecule: CS(=O)(=O)Nc1ccc(C2=NN(C(=O)CCCC(=O)O)C(c3ccco3)C2)cc1 (stereo not shown)
IC50 at 72 h: > 20 µM
--
Molecule: Nc1nc(O)c2nc(CCCNc3ccc(C(=O)NC(CCC(=O)O)C(=O)O)cc3)cnc2n1 (stereo not shown)
IC50 at 72 h: > 20 µM
